Source: paper PMC10786891

measured on: T1, EsCas13d, nuclease-dead (Eubacterium siraeum, UniProt B0MS50, R295A;H300A;R849A;H854A)
T1 sequence: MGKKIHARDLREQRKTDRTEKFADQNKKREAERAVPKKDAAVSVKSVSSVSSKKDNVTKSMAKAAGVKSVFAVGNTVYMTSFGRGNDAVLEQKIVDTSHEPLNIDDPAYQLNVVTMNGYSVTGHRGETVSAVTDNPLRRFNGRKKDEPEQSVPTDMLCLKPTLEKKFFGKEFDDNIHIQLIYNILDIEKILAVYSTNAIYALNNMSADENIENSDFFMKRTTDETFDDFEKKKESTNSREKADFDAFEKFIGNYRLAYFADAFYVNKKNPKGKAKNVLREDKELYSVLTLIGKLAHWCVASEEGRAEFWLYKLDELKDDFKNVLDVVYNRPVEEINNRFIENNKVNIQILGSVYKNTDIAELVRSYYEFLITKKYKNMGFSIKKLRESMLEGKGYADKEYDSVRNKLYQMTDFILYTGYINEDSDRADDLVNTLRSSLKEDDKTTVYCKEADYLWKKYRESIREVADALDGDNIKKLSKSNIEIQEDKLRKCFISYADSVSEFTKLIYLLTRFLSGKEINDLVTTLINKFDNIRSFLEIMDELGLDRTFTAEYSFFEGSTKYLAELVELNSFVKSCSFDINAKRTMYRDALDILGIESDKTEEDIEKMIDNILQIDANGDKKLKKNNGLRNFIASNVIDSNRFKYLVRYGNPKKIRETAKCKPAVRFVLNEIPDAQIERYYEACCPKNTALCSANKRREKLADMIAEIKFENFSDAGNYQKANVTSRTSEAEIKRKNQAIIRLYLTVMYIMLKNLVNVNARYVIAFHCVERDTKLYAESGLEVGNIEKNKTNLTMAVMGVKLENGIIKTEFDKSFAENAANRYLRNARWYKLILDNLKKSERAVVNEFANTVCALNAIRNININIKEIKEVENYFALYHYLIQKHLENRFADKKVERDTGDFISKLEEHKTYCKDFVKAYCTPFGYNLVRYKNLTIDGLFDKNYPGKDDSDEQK
assay method text: crRNA (strand 1, pre-loaded); Mg2+; 40 mM Tris-HCl pH 7.5, 150 mM NaCl, 6 mM MgCl2, 1 mM DTT, 0.1% Tween-20, 0.2 mg/ml BSA; 25 C; 10 min per concentration, then washed
experimental parameters: tags: His6-TwinStrep-SUMO cleaved; N-terminal SNAP kept (SNAP-Surface 488); label: 3' end held by stalled T7 RNA polymerase
property name: pKd
Conceptually, pKd converts a concentration in mol/L into minus its log10.

Solved entries (count: 5):
{"binder": "target 3 G4C,A11G (mixed) RNA 1: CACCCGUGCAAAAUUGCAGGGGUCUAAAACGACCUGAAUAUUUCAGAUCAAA RNA 2: GGGAAUGGAUCCACAUCUACGAAUUCGUUUUUGAUCUGAAGUAUUCACGUCUGCAGAUCGGAAGAGCACACGU", "value reported": 7.26}
{"binder": "target 1 insG 3' of 10,insU 3' of 1 (mixed) RNA 1: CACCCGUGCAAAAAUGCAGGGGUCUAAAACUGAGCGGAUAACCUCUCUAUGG RNA 2: GGGAAUGGAUCCACAUCUACGAAUUCGUACCAUAGAGAGGUUGAUCCGCUCAUCCGAGAUCGGAAGAGCACACGU", "value reported": 7.48}
{"binder": "target 1 insC 3' of 19 (mixed) RNA 1: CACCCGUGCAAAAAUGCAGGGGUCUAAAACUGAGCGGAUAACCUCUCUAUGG RNA 2: GGGAAUGGAUCCACAUCUACGAAUUCGUACCAUCAGAGAGGUUAUCCGCUCACCGAGAUCGGAAGAGCACACGU", "value reported": 7.57}
{"binder": "target 2 MT 5'PFS ACG 3'PFS CGC (mixed) RNA 1: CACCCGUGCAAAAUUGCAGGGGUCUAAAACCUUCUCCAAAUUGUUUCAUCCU RNA 2: GGGAAUGGAUCCACAUCUACGAAUUCACGAGGAUGAAACAAUUUGGAGAAGCGCAGAUCGGAAGAGCACACGU", "value reported": 8.09}
{"binder": "target 2 MT 5'PFS GGA 3'PFS CAA (mixed) RNA 1: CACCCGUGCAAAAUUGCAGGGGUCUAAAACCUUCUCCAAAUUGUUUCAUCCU RNA 2: GGGAAUGGAUCCACAUCUACGAAUUCGGAAGGAUGAAACAAUUUGGAGAAGCAAAGAUCGGAAGAGCACACGU", "value reported": 8.17}

Respond only with pKd recorded for target 1 U8A,G15A (mixed) RNA 1: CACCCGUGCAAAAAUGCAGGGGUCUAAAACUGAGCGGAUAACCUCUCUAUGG RNA 2: GGGAAUGGAUCCACAUCUACGAAUUCGUACCAUAGAAAGGUUAACCGCUCACCGAGAUCGGAAGAGCACACGU
7.06

Respond only with pKd recorded for target 2 MT 5'PFS CGA 3'PFS UUA (mixed) RNA 1: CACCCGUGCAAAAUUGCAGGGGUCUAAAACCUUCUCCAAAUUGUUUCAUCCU RNA 2: GGGAAUGGAUCCACAUCUACGAAUUCCGAAGGAUGAAACAAUUUGGAGAAGUUAAGAUCGGAAGAGCACACGU
8.05

Respond only with pKd recorded for target 2 MT 5'PFS GGA 3'PFS UCA (mixed) RNA 1: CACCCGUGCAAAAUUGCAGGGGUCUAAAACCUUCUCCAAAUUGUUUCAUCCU RNA 2: GGGAAUGGAUCCACAUCUACGAAUUCGGAAGGAUGAAACAAUUUGGAGAAGUCAAGAUCGGAAGAGCACACGU
7.98
